- System: duck salad
- method notes: Test C flooded paddy test
- Format: in vivo, Heteranthera limosa
- assay context: Flood, 250 g ai/ha; scale 0 to 100, 0 no effect, 100 complete control; 13 to 15 days
quantity measured: Plant response rating, Ducksalad

Recall and state the measured Plant response rating, Ducksalad for Cn1nc(C(F)(F)C(F)(F)F)c(CS(=O)(=O)c2cccc[n+]2[O-])c1OCC(F)(F)F [Compound 84] .
85

More entries:
Recall and state the measured Plant response rating, Ducksalad for Cc1cc[n+]([O-])c(S(=O)(=O)Cc2c(C(F)(F)C(F)(F)F)nn(C)c2OCC(F)(F)F)c1 [Compound 99] .
65

Recall and state the measured Plant response rating, Ducksalad for CC(C)c1cc[n+]([O-])c([S+]([O-])Cc2c(C(F)(F)F)nn(C)c2OC(F)F)c1 (stereo not shown) [Compound 109] .
65

Recall and state the measured Plant response rating, Ducksalad for Cn1nc(C(F)(F)F)c(C[S+]([O-])c2cc(Cl)cc[n+]2[O-])c1OC(F)F (stereo not shown) [Compound 57] .
95
